- Assay name: amyloid nucleation score (Sup35N fusion, yeast selection) (log enrichment); library NNK2; higher = more nucleation; inactive = no reads after selection;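 also: zero at mode of non-aggregating sequences after 7 days selection at 30°C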
Readout: amyloid nucleation score

Study these solved cases before continuing.
1) KFHHGFLGELPAPEYSSESA    0.25
2) TVATRHYNLNGQSWKKWAQ    0.059
3) KINVSRFN    -0.146
4) MFMTVRWNVAINLELFTVID    -0.34
5) CIVCFVFMLKRALLLHFCIA    -0.81

--- query ---
Reported amyloid nucleation score ( `GIWWQHNGFEYDFGNLSC` ) = -0.165

---

- Assay name: amyloid nucleation score (Sup35N fusion, yeast selection) (log enrichment); library NNK1; higher = more nucleation; inactive = no reads after selection
Label No if amyloid nucleation score falls below -0.3; label Yes in every other case.

Exercise: Textbook exercise: given the entry `CCFNYKSPWSMWFNLRLSNP` , state whether its amyloid nucleation score is greater than or equal to -0.3.
Key: Yes

Exercise: Decide: amyloid nucleation score of `KAFIQTVLRNQVSWLANTPH` >= -0.3?
Key: No

Exercise: Is the recorded value of amyloid nucleation score equal to or greater than -0.3 for this sequence? `VWLMFLSWLV`
Key: No

Exercise: Hi, just wondering whether `IGFPRLTSEDS` shows amyloid nucleation score of -0.3 or higher.
Key: Yes

Exercise: Hi team, for `MVETVYMVEALCRGPEPVVV` , is the recorded amyloid nucleation score at or above -0.3?
Key: No

Exercise: Is amyloid nucleation score for `ITDVMCMGGSTCFGNSGYTN` at or above -0.3?
Key: Yes

Exercise: API: above_or_equal(metric=amyloid nucleation score, cutoff=-0.3) for item `YMSWASLRKHFIFVV`
Key: Yes

Exercise: Does the sequence `GHYRFVSFRFSWAEGAQLRG` have recorded amyloid nucleation score that is -0.3 or more?
Key: Yes

---

- Assay name: amyloid nucleation score (Sup35N fusion, yeast selection) (log enrichment); library NNK2; higher = more nucleation; inactive = no reads after selection
# cutoff 0.05 applies to amyloid nucleation score; >= gives true, < gives false

Exercise: Is amyloid nucleation score at least 0.05? Consider `YGWRSRYVPCPAGRRCVMSQ`
Key: true

Exercise: hey, is amyloid nucleation score for this one >= 0.05? `WISIRSTNRRKLRHRSYATV`
Key: true

Exercise: For this sequence, is measured amyloid nucleation score 0.05 or higher? `HCGYEAIILWGVRFCGILQR`
Key: false

Exercise: Quick check: does `ILMCETLWNWLKWIPKFNSC` have amyloid nucleation score greater than or equal to 0.05?
Key: false

Exercise: In plain terms: is recorded amyloid nucleation score at least 0.05 for `TFPNLHFCFTLLLYKGCVCG` ?
Key: false

Exercise: Evaluate `YGCLNYSRWRTSAGMDTNNG` : amyloid nucleation score at minimum 0.05?
Key: false

Exercise: Hi team, for `LLRLRECQV` , is the recorded amyloid nucleation score at or above 0.05?
Key: true

Exercise: Threshold query (amyloid nucleation score >= 0.05) on `FIEGVRMHLRGM`
Key: true

Exercise: Is the recorded value of amyloid nucleation score equal to or greater than 0.05 for this sequence? `ERIHSSCNYTFAFLLGFMSV`
Key: true

Exercise: Threshold query (amyloid nucleation score >= 0.05) on `FILPRLIFAGQLSCGFARGV`
Key: false

Exercise: Does the sequence `CSTLVRIR` have recorded amyloid nucleation score that is 0.05 or more?
Key: true

Exercise: Given the entry `VYLYGPQLLSRWWIQLCCQM` , answer whether its amyloid nucleation score meets or surpasses 0.05.
Key: true

Exercise: Is reported amyloid nucleation score greater than or equal to 0.05 here: `NVRDMCLSACTSQWYYYFAV`
Key: true

Exercise: Confirm if amyloid nucleation score reported for the sequence `ECNQCWNMGMM` is 0.05 or above.
Key: false

Exercise: Please check the record `VSPNPIWIVEKWPI` and state if its amyloid nucleation score is at or above 0.05.
Key: false
